Just for reference, the supplement of paper PMC6555819 is where these values come from.

Test system: LXRb homodimer (NR concentration 270 nM)
Assay: PBM binding z-score (relative to random genomic background probes); higher = stronger binding; sequences stand for … in GC…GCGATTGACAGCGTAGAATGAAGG
Lab note: compare PBM binding z-score against -1. Equal or greater, write T. Smaller, write F.

Here's what some known entries look like.
GCCACTGGGGCATCAGCAGGTTACCATAACTTAA	F
GGAACGAGGGCAAGTTGATAGCAGAGTTTGATGG	T
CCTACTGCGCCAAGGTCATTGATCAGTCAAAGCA	T
CCTTACGGGACACTCCAGGTTATAGCATCGGAGT	T
TCTAGCAGGCCAGAGGGTCACTCAAGAGGTACGG	F

Now for a further sequence.
Does the sequence `CCTACTGGGCCAAAAAGGTCATTGAGGCCGATAA` have recorded PBM binding z-score that is -1 or more? T
